- Tested on: P388 leukemia ip, CD2F1 mice, survival T/C
- test_summary: NCI In Vivo Anticancer Drug Screen. Data for tumor model P388 Leukemia (intraperitoneal) in CD2F1 (CDF1) mice
- condition_parameters: endpoint: median survival time; dose: 100.0 mg/kg/injection; schedule: Q04DX003 (ip); vehicle: saline; higher = longer survival
Inconclusive results and toxic doses are left out.
Task for the reader: assign each of the following compounds its reported T/C.

Ask: Would you kindly share the measured T/C for Cc1cc(Cl)nc2ccc([N+](=O)[O-])cc12 ?
Result: 92 % of control

Ask: Would you kindly share the measured T/C for COc1ccc(C2CC(=O)N(c3cccc(C)n3)C(=O)C2)cc1 ?
Result: 100 % of control

Ask: Would you kindly share the measured T/C for CCCCN(C(=O)c1ccccc1)c1nc2ccccc2n1C ?
Result: 95 % of control

Ask: Would you kindly share the measured T/C for CC12NC(=O)NC1(C)NC(=O)N2 (centres undefined) ?
Result: 103 % of control

Ask: Would you kindly share the measured T/C for Cc1ccc(S(=O)(=O)OC2CCN(C)CC2)cc1 ?
Result: 99 % of control

Ask: Would you kindly share the measured T/C for O=C1N(CO)C2C(N1CO)N(CO)C(=O)N2CO (centres undefined) ?
Result: 109 % of control

Ask: Would you kindly share the measured T/C for CC1(C)CC(=O)OC/C=C\CC(Cc2ccccc2)C(=O)C1 (centres undefined) ?
Result: 104 % of control

Ask: Would you kindly share the measured T/C for O=C(NCCO)Nc1ccccc1F ?
Result: 100 % of control

Ask: Would you kindly share the measured T/C for CCOC(=O)c1cnc2c(cnn2CC)c1NN=C(C)C ?
Result: 109 % of control
